Listed here: items and their measured Stereotypy score.
Test system: Rattus norvegicus
Assay: Stereotypic behavior of male Sprague-Dawley rats, after a sc administration of 5 dose(mg/kg)
Type: functional

| COMPOUND | Stereotypy score |
| --- | --- |
| CN1CCc2cccc3c2[C@H]1Cc1ccc(O)c(O)c1-3 | 18 |
| CCCN1CCc2cccc3c2[C@@H]1Cc1ccc(O)c(O)c1-3.CCCN1CCc2cccc3c2[C@H]1Cc1ccc(O)c(O)c1-3 (racemic; (-)) | 18 |
| CCCN1CCc2cccc3c2[C@@H]1Cc1ccc(O)c(O)c1-3.CN1CCc2cccc3c2[C@H]1Cc1ccc(O)c(O)c1-3 (stereo in doubt; (+)) | 17.5 |
| CCCN1CCc2cccc3c2[C@@H]1Cc1ccc(O)c(O)c1-3.CCCN1CCc2cccc3c2[C@H]1Cc1ccc(O)c(O)c1-3 (racemic; (+)) | 17.2 |
| CCCN1CCc2cccc3c2[C@@H]1Cc1ccc(O)c(O)c1-3.CN1CCc2cccc3c2[C@H]1Cc1ccc(O)c(O)c1-3 (stereo in doubt; (-)) | 17.7 |
